tested on: U-87 MG; test: Cytotoxicity against human U87 cells after 24 hrs by SRB method
pIC50: −log10 of the molar value.
readoutType: pIC50

Example entries begin here.
In [3]: df
Out[3]:
                             chemicalsmiles  readouttype  endpointresult
0  COc1cc(-c2c(OC)cc(-c3ccccc3)c(OC)c2O)cc2c1OC(C)(C)CC2        pIC50          < 4.30
1  COc1cc(-c2c(OC)cc(-c3ccccc3)c(OC)c2O)cc(CC=C(C)C)c1O        pIC50          < 4.30
2  COc1cc2oc3c(OC)c(-c4cc(CC=C(C)C)c(O)c(OC)c4)cc(OC)c3c2cc1OC        pIC50          < 4.30
3  COc1cc(-c2c(OC)cc(-c3ccccc3)c(OC)c2O)ccc1OC/C=C(\C)CO        pIC50          < 4.30

Any idea what pIC50 was measured for COc1ccc(-c2c(OC)cc(-c3ccc(O)c(CC=C(C)C)c3)c(OC)c2O)cc1OC ?
< 4.30

What does the data say about its pIC50? Entry: COc1c(-c2ccccc2)cc(OC)c2c1oc1cc(O)c(OCC=C(C)C)cc12
4.99

Recorded pIC50 of COc1cc2oc3c(OC)c(-c4cc(CC=C(C)C)c(O)c(OC)c4)cc(OC)c3c2cc1O , please.
< 4.30

Which pIC50 value is on record for COc1c(-c2ccccc2)cc(OC)c2c1oc1c3c(c(O)cc12)OC(C)(C)C=C3 ?
< 4.30

Recorded pIC50 for COc1cc(-c2ccc(O)c(O)c2)c(OC)c(O)c1-c1ccc(OCC=C(C)C)c(O)c1 , please?
4.86

###

test system: K562; assay: Cytotoxicity against human K562 cells after 72 hrs by MTT assay; details: K562, 72 h
pIC50: −log10 of the molar value.
readoutType: pIC50

Worked examples follow.
>>> print(df.to_string())
                             chemicalsmiles  endpointresult
0  COc1cc(-c2c(OC)cc(-c3ccccc3)c(OC)c2O)cc2c1OC(C)(C)CC2          < 4.30
1  COc1cc(-c2c(OC)cc(-c3ccccc3)c(OC)c2O)cc(CC=C(C)C)c1O          < 4.30
2  COc1ccc(-c2c(OC)cc(-c3ccc(O)c(CC=C(C)C)c3)c(OC)c2O)cc1OC            4.80

Okay, next one:
Would you mind telling me what pIC50 value was observed for COc1cc2oc3c(OC)c(-c4cc(CC=C(C)C)c(O)c(OC)c4)cc(OC)c3c2cc1OC ?
< 4.30

###

// reported pIC50 per item
tested on: HL-60; experiment: Cytotoxicity against human HL60 cells after 72 hrs by MTT assay; assay type: functional, cell-based; details: HL-60, 72 h
pIC50: −log10 of the molar value.

>>> print(df.to_string())
                             chemicalsmiles  readouttype  endpointresult
0  COc1cc(-c2c(OC)cc(-c3ccccc3)c(OC)c2O)cc2c1OC(C)(C)CC2        pIC50          < 4.30
1  COc1cc(-c2c(OC)cc(-c3ccccc3)c(OC)c2O)ccc1OC/C=C(\C)CO        pIC50            5.15
2  COc1cc(-c2ccc(O)c(O)c2)c(OC)c(O)c1-c1ccc(OCC=C(C)C)c(O)c1        pIC50          < 4.30
3  COc1cc(-c2c(OC)cc(-c3ccccc3)c(OC)c2O)cc(CC=C(C)C)c1O        pIC50          < 4.30

Query (compound): COc1cc2oc3c(OC)c(-c4cc(CC=C(C)C)c(O)c(OC)c4)cc(OC)c3c2cc1O ; field requested: pIC50
5.47

Fill in: pIC50 of COc1ccc(-c2c(OC)cc(-c3ccc(O)c(CC=C(C)C)c3)c(OC)c2O)cc1OC is ___
< 4.30

# query: pIC50 of entry COc1c(-c2ccccc2)cc(OC)c2c1oc1cc(O)c(OCC=C(C)C)cc12
< 4.30

Any idea what its pIC50 is? The compound is COc1c(-c2ccccc2)cc(OC)c2c1oc1c3c(c(O)cc12)OC(C)(C)C=C3
< 4.30

Value lookup for pIC50; key = COc1cc2oc3c(OC)c(-c4cc(CC=C(C)C)c(O)c(OC)c4)cc(OC)c3c2cc1OC
< 4.30

Values compiled from ChEMBL document CHEMBL4342453.
